Assay Target: T1, biotinylated GITR (human, UniProt Q9Y5U5 26-161, limits assumed, biotinylated (sites not given))
T1 construct: also called GITR-bio; Biotin-GITR
T1 sequence: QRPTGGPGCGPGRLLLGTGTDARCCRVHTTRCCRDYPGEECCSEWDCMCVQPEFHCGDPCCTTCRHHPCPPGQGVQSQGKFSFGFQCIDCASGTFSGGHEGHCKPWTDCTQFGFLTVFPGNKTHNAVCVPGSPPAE
Assay Procedure: BLI (Octet), biotin-GITR on streptavidin tips, antibody supernatant
For each record, write down the corresponding koff.
Remember to quote the unit after the number.

For germline variant antibody 55 (H1916F10 / K1916F10) (antibody, V domains shown, IGHG1/IGKC expression vectors; measured from CHO culture supernatant; also called Antibody ID 55) VH: QVQLVQSGTEVKKPGASVKVSCKASGYTFTDYAMYWVRQAPGQGLEWIGLIRTYSGGVTYNQKFQGRVTMTVDTSISTAYMELSRLRSDDTAVYYCAKSGTVRGFAYWGQGTLVTVSS VL: DIVMTQSPDSLAVSLGERATINCKSSQSLLNSGNQKNYLSWYQQKPGQPPKLLIYWASTRESGVPDRFSGSGSGTDFTLTISSVQAEDVAVYHCQNDYSFPYTFGQGTKLEIK the binder record lists koff as 0.00055 s⁻¹

response.value for germline variant antibody 91 (H1917F03 / K1917F03) (antibody, V domains shown, IGHG1/IGKC expression vectors; measured from CHO culture supernatant; also called Antibody ID 91) VH: QVQLVQSGTEVKKPGASVKVSCKGSGYTFTEYAMHWVRQAPGQGMEWMGLIRTYSGGVSYNQKFQERATMTVDTSISTAYMELSRLRSDDTAVYYCAKSGTVRGFAYWGQGTLVTVSS VL: DIVMTQSPDSLAVSLGERATINCKSSQSLLNSGNQKNYLSWYQQKPGQPPKLLIYWASTRESGVPDRFSGSGSGTDFTLTISSVQAEDVAVYHCQNEYSFPYTFGQGTKLEIK (field: koff) = 0.00159 s⁻¹

Entry germline variant antibody 49 (H1916E11 / K1916E11) (antibody, V domains shown, IGHG1/IGKC expression vectors; measured from CHO culture supernatant; also called Antibody ID 49) VH: QVQLVQSGTEVKKPGASVKVSCKGSGYTFTGYAMYWVRQAPGQGLEWMGVIRTYSGDVTYNQKFRERATMTVDTSISTAYMELSRLRSDDTAVYYCAKSGTVRGFAYWGQGTLVTVSS VL: DIVMTQSPDSLAVSLGERATINCKSSQSLLNSGNQKNYLTWYHQKPGQPPKLLIYWASTRESGVPDRFSGSGSGTDFTLTISSVQAEDVAVYHCQNDYSFPYTFGQGTKLEIK , koff reported as 0.000707 s⁻¹

Memo: germline variant antibody 50 (H1916F03 / K1916F03) (antibody, V domains shown, IGHG1/IGKC expression vectors; measured from CHO culture supernatant; also called Antibody ID 50) VH: QVQLVQSGTEVKKPGASVKVSCKASGYTFTDYAMYWVRQAPGQGLEWIGLIRTFSGGVSYNQKFKERVTMTVDKSISTAYMELSRLRSDDTAVYYCAKSGTVRGFAYWGQGTLVTVSS VL: DIVMTQSPDSLAVSLGERATINCKSSQSLLNSSNQKNYLTWYQQKPGQPPKMLIYWASTRESGVPDRFSGSGSGTDFTLTISSLQAEDVAVYYCQNDYSYPYTFGQGTKLEIK , reported koff: 0.000254 s⁻¹

Entry germline variant antibody 20 (H1916B12 / K1916B12) (antibody, V domains shown, IGHG1/IGKC expression vectors; measured from CHO culture supernatant; also called Antibody ID 20) VH: QVQLVQSGTEVKKPGASVKVSCKASGYTFTDYAMYWVRQAPGQGLEWIGVIRTFSGDLSYNQKFRGRVTMTVDTSISTAYMELSRLRSDDTAVYYCAKSGTVRGFAYWGQGTLVTVSS VL: DIVMTQSPDSLAVSLGERATINCKSSQSLLNSGNQKNYLTWYQQKPGQPPKMLLYWASTRESGVPDRFTGSGSGTDFTLTISSVQAEDVAVYHCQNDYSYPYTFGQGTKLEIK , koff reported as 0.00038 s⁻¹
